The measurements presented in this section are drawn from patent EP0082498A2.

- Tested on: Salmonella typhimurium IID-971
- experiment summary: Antibacterial activity, minimum inhibition concentration (MIC)
- Type: cell-based
- cond: Salmonella enterica, Table 1; Salmonella typhimurium IID-971; read-out: minimum inhibition concentration (MIC)
Exercise: state measured MIC for each of the compounds provided.

[
  {
    "compound": "Cn1nnnc1SCC1=C(C(=O)O)N2C(=O)C(NC(=O)C(=CCl)c3cnc(N)s3)C2SC1 (stereo not shown) [Example 7]",
    "system under test": "Salmonella typhimurium IID-971",
    "MIC": "1.56 µg/mL"
  },
  {
    "compound": "Cn1nnnc1SCC1=C(C(=O)O)N2C(=O)C(NC(=O)C(=CBr)c3csc(N)n3)C2SC1 (stereo not shown) [Example 21]",
    "system under test": "Salmonella typhimurium IID-971",
    "MIC": "≤ 0.006 µg/mL"
  },
  {
    "compound": "CSC=C(C(=O)NC1C(=O)N2C(C(=O)O)=C(CSc3nnnn3C)CSC12)c1csc(N)n1 (stereo not shown) [Example 12]",
    "system under test": "Salmonella typhimurium IID-971",
    "MIC": "≤ 0.006 µg/mL"
  },
  {
    "compound": "CSc1nnc(SCC2=C(C(=O)O)N3C(=O)C(NC(=O)C(=CCl)c4csc(N)n4)C3SC2)s1 (single isomer, unassigned) [Example 20]",
    "system under test": "Salmonella typhimurium IID-971",
    "MIC": "≤ 0.006 µg/mL"
  },
  {
    "compound": "Cn1nc(O)c(=O)nc1SCC1=C(C(=O)O)N2C(=O)C(NC(=O)C(=CCl)c3csc(N)n3)C2SC1 (single isomer, unassigned) [Example 4]",
    "system under test": "Salmonella typhimurium IID-971",
    "MIC": "≤ 0.006 µg/mL"
  },
  {
    "compound": "Cn1nnnc1SCC1=C(C(=O)O)N2C(=O)C(NC(=O)C(=CC(N)=O)c3csc(N)n3)C2SC1 (single isomer, unassigned) [Example 18]",
    "system under test": "Salmonella typhimurium IID-971",
    "MIC": "0.1 µg/mL"
  }
]

// moving on: another record for MIC
Entry COC(=N)C=C(C(=O)NC1C(=O)N2C(C(=O)O)=C(CSc3nnnn3C)CSC12)c1csc(N)n1 (single isomer, unassigned) [Example 17] under Salmonella typhimurium IID-971 had MIC of 0.0125 µg/mL
